# credit: PubChem BioAssay AID328

- System: BDF1 mice, P388 leukemia ip, median survival T/C
- ASSAY_SUMMARY: NCI In Vivo Anticancer Drug Screen. Data for tumor model P388 Leukemia (intraperitoneal) in B6D2F1 (BDF1) mice
- MEASUREMENT_PARAMETERS: endpoint: median survival time; dose: 100.0 mg/kg/injection; schedule: Q01DX001 (ip); vehicle: saline with Tween-80; higher = longer survival
Toxic doses and inconclusive results are not listed.
Below, each entry is listed alongside its reported T/C.

Exercise: Check the records and state T/C for Cc1cc(=O)[nH]c2cc(Br)ccc12
Key: 104 % of control

Exercise: Check the records and state T/C for CCOP(=O)(C/C(=N\Nc1ccc([N+](=O)[O-])cc1[N+](=O)[O-])c1ccccc1)c1ccccc1 (stereo unspecified)
Key: 95 % of control

Exercise: Check the records and state T/C for O=[N+]([O-])C=C1CCCCC1
Key: 113 % of control

Exercise: Check the records and state T/C for c1coc(NC2CCCCC2)n1
Key: 90 % of control

Exercise: Check the records and state T/C for CC(C)NCc1ccccc1Sc1ccccc1
Key: 101 % of control

Exercise: Check the records and state T/C for CCC(CN(C)C)C(=O)c1ccccc1 (stereo unspecified)
Key: 100 % of control

----------
Below, each entry is listed alongside its reported T/C.
- System: BDF1 mice, P388 leukemia ip, median survival T/C
- ASSAY_SUMMARY: NCI In Vivo Anticancer Drug Screen. Data for tumor model P388 Leukemia (intraperitoneal) in B6D2F1 (BDF1) mice
- MEASUREMENT_PARAMETERS: endpoint: median survival time; dose: 100.0 mg/kg/injection; schedule: Q01DX001 (ip); vehicle: saline; higher = longer survival
Inconclusive results and toxic doses are left out.

// below: answered compounds
COMPOUND: CCOS(=O)(=O)c1ccc([N+](=O)[O-])cc1[N+](=O)[O-]
EXPERIMENTAL_TARGET: BDF1 mice, P388 leukemia ip, median survival T/C
T/C: 104 % of control
--
COMPOUND: COc1c2c(c(OC(C)=O)c3c1C(=O)c1ccccc1C3=O)CCCC2
EXPERIMENTAL_TARGET: BDF1 mice, P388 leukemia ip, median survival T/C
T/C: 115 % of control
--
COMPOUND: CC1(C#N)CC(C#N)Nc2ccccc2N1 (centres undefined)
EXPERIMENTAL_TARGET: BDF1 mice, P388 leukemia ip, median survival T/C
T/C: 104 % of control

Exercise: Check the records and state T/C for C[N+](C)(Cc1ccccc1)/N=C(\[O-])Cc1ccccc1
Key: 104 % of control

----------
- Test system: BDF1 mice, P388 leukemia ip, median survival T/C
- ASSAY_SUMMARY: NCI In Vivo Anticancer Drug Screen. Data for tumor model P388 Leukemia (intraperitoneal) in B6D2F1 (BDF1) mice
- MEASUREMENT_PARAMETERS: endpoint: median survival time; dose: 50.0 mg/kg/injection; schedule: Q01DX009 (ip); vehicle: water; higher = longer survival
Toxic doses and inconclusive results are not listed.
ENDPOINT: T/C

// below: answered molecules
MOLECULE: NC(=S)N=Nc1ccc(O)c2c(O)ccc(O)c12
T/C: 86 % of control
//
MOLECULE: O=C1CC(c2c[nH]c3nccnc23)NN1 (stereo not given)
T/C: 110 % of control
//
MOLECULE: O=NO.O=N[O-].O=N[O-].[Co+3].[NH-]CC[N-]CCO.[NH-]CC[N-]CCO
T/C: 98 % of control

Exercise: Check the records and state T/C for C/C(=C\C(=O)O)CC(=O)O
Key: 95 % of control

Exercise: Check the records and state T/C for C[n+]1c(-c2ccc(Cl)cc2Cl)c2cc([N+](=O)[O-])ccc2c2ccccc21
Key: 101 % of control

Exercise: Check the records and state T/C for CCNC(C)(C)C(SS)c1ccc(Br)cc1 (stereo not given)
Key: 101 % of control

Exercise: Check the records and state T/C for CC(O)(c1ccc(Cl)cc1)C(c1ccccc1)c1ccccn1 (stereo not given)
Key: 109 % of control

Exercise: Check the records and state T/C for C#CC1(OCC(O)CO)CCCCC1 (stereo not given)
Key: 94 % of control

Exercise: Check the records and state T/C for CN(C(=N)N)c1ccc(C(=O)Oc2ccc([N+](=O)[O-])cc2)cc1
Key: 108 % of control

Exercise: Check the records and state T/C for Nc1nc2nsnc2nc1N
Key: 111 % of control

----------
- Test system: BDF1 mice, P388 leukemia ip, median survival T/C
- ASSAY_SUMMARY: NCI In Vivo Anticancer Drug Screen. Data for tumor model P388 Leukemia (intraperitoneal) in B6D2F1 (BDF1) mice
- MEASUREMENT_PARAMETERS: endpoint: median survival time; dose: 3.12 mg/kg/injection; schedule: Q01DX009 (ip); vehicle: saline; higher = longer survival
Toxic doses and inconclusive results are not listed.
Below, each entry is listed alongside its reported T/C.

// below: answered molecules
MOLECULE: CC(C)=CC(=O)OC1C2C(C)C(=O)OC2C(O)C(C)C2C=CC(=O)C21C (centres undefined)
T/C: 94 % of control
//
MOLECULE: COc1ccc2c(c1)c1c(C)c3cnccc3c(C)c1n2CCCN
T/C: 95 % of control
//
MOLECULE: CNc1n[n+](-c2ccccc2)no1
T/C: 115 % of control

Exercise: Check the records and state T/C for COc1cc2c(cc1OC)C1c3cc(OC)c(OC)cc3CC(=O)N1CC2 (centres undefined)
Key: 100 % of control

----------
- Tested on: BDF1 mice, P388 leukemia ip, median survival T/C
- ASSAY_SUMMARY: NCI In Vivo Anticancer Drug Screen. Data for tumor model P388 Leukemia (intraperitoneal) in B6D2F1 (BDF1) mice
- MEASUREMENT_PARAMETERS: endpoint: median survival time; dose: 400.0 mg/kg/injection; schedule: Q04DX003 (ip); vehicle: saline with Tween-80; higher = longer survival
Inconclusive results and toxic doses are left out.
ENDPOINT: T/C

Exercise: Check the records and state T/C for NC(=O)N/C=C1\CCCOC1=O
Key: 109 % of control

----------
- Test system: BDF1 mice, P388 leukemia ip, median survival T/C
- ASSAY_SUMMARY: NCI In Vivo Anticancer Drug Screen. Data for tumor model P388 Leukemia (intraperitoneal) in B6D2F1 (BDF1) mice
- MEASUREMENT_PARAMETERS: endpoint: median survival time; dose: 50.0 mg/kg/injection; schedule: Q01DX001 (ip); vehicle: saline with Tween-80; higher = longer survival
Toxic doses and inconclusive results are not listed.
Below, each entry is listed alongside its reported T/C.

// below: answered compounds
COMPOUND: CCOP(=O)(C/C(=N\Nc1ccc([N+](=O)[O-])cc1[N+](=O)[O-])c1ccccc1)c1ccccc1 (stereo not given)
EXPERIMENTAL_TARGET: BDF1 mice, P388 leukemia ip, median survival T/C
OBSERVED: 104 % of control
--
COMPOUND: O=S(=O)(CBr)N1CCOCC1
EXPERIMENTAL_TARGET: BDF1 mice, P388 leukemia ip, median survival T/C
OBSERVED: 95 % of control

Exercise: Check the records and state T/C for Cc1ccc(C)c2c1[nH]c1c(C)c3ccncc3c(C)c12
Key: 91 % of control

Exercise: Check the records and state T/C for Cc1ccc(S(=O)(=O)OCC(C)(C)NC(=O)c2ccc([N+](=O)[O-])cc2)cc1
Key: 100 % of control

Exercise: Check the records and state T/C for O=[N+]([O-])C=C1CCCCC1
Key: 118 % of control

----------
- Test system: BDF1 mice, P388 leukemia ip, median survival T/C
- ASSAY_SUMMARY: NCI In Vivo Anticancer Drug Screen. Data for tumor model P388 Leukemia (intraperitoneal) in B6D2F1 (BDF1) mice
- MEASUREMENT_PARAMETERS: endpoint: median survival time; dose: 100.0 mg/kg/injection; schedule: Q04DX002 (ip); vehicle: saline with Tween-80; higher = longer survival
Toxic doses and inconclusive results are not listed.
ENDPOINT: T/C

// below: answered compounds
COMPOUND: CCC(C)OP1(=S)OCC(C)O1 (configuration not stated)
T/C: 115 % of control

COMPOUND: COc1ccc2[nH]c(C)c(SC)c2c1
T/C: 100 % of control

COMPOUND: N#Cc1nnc2cc[nH]n2c1=O
T/C: 100 % of control

COMPOUND: O=S(=O)(c1ccccc1)N1C2=CCCC3CCCCC23c2ccccc21 (configuration not stated)
T/C: 95 % of control

COMPOUND: COC1/C=C/OC2(C)Oc3c(C)c(O)c4c(O)c5c(c(O)c4c3C2=O)CN(C)C(=N5)/C(C)=C\C=C\C(C)C(O)C(C)C(O)C(C)C(OC(C)=O)C1C (configuration not stated)
T/C: 97 % of control

COMPOUND: Cc1cnn(O)c(=NCCCl)n1
T/C: 99 % of control

Next:
Exercise: Check the records and state T/C for CCOC(=O)/C(=C\c1ccccc1)O/C(=C/c1ccccc1)C(=O)OCC
Key: 89 % of control
